Tested on: NCI-H226
protocol.description: NCI tumour cell line growth inhibition, 48 h
The source made the active and inactive calls. Cut-off read from the data, not from the text of the source: active = GI50 up to about 1.1 µM and inactive = higher. Peptide text beside a SMILES is read from it. * marks the point of attachment. Boc = CC(C)(C)OC(=O)*; OBn = c1ccc(CO*)cc1; Bn = c1ccc(C*)cc1
Outcome codes: active, inactive

compound	label.class
CCOC(=O)CC1(C(=O)OCC)c2[nH]c3ccccc3c2CCN1Cc1ccccc1 (stereo not given)	inactive
CN(C(=O)c1ccc2c(c1)sc1c(=O)n(C)c3ccccc3c12)c1ccccc1	inactive
CN(C)CCNC(=O)c1c(O)ccc2c1c1c(n2CCc2ccccc2)C(=O)c2ccccc2C1=O	inactive
CSc1ccc(NC(=O)CCl)cc1	inactive
CCCCCCCCCC(=O)CC(=O)c1ccc(O)cc1O	inactive
O=[N+]([O-])c1ccc(CN(CCCl)OCCCl)cc1	inactive
COc1ccc(NC(=O)CCc2cc(C(C)(C)C)[nH]n2)cc1	inactive
Cc1cc(C)nc(NS(=O)(=O)c2ccc(NC(=O)c3c4ccccc4nc4ccccc34)cc2)n1	inactive
C/N=c1\ss/c(=N\C(=S)N(C)C)n1C	inactive
CC(C)CC(NC(=O)C(CCC(=O)OCc1ccccc1)NC(=O)OC(C)(C)C)C(=O)NC(COCc1ccccc1)C(=O)NC(Cc1ccccc1)C(=O)O (stereo not given) (Boc-E(OBn)LS(Bn)F-OH; configuration not given here)	inactive
CCC(C)(C)/C(CC(O)(C(F)(F)F)C(F)(F)F)=N\O	inactive
C=C[C@@]1(C)CC(=O)[C@]2(O)[C@@]3(C)[C@@H](OC(C)=O)CCC(C)(C)[C@@H]3[C@H](OC(C)=O)[C@H](OC(C)=O)[C@@]2(C)O1	inactive
Cc1csc(=S)n1OC(=O)NC1CCCCC1	inactive
COC(=O)C1=C(C)N(NC(=O)c2cccc(Cl)c2)C(C)(O)C12CCOC2=O (stereo not given)	inactive
C(#Cc1ccccc1)SC1=C(c2ccccc2)S/C(=C(\SC#Cc2ccccc2)c2ccccc2)S1	inactive
Cc1ccc(C)n2c1nc1ccc3ccccc3c12	inactive
CCCn1c(C23CC4CC(CC(C4)C2)C3)nc2ccc(Cl)cc2c1=O	inactive
S=C(N/N=C/c1ccccn1)Nc1ccc(Cl)cc1	active
COC(=O)c1sc(=O)sc1SCc1cccc(CSc2sc(=O)sc2C(=O)OC)c1	inactive
O=C1NC(c2cccc3ccccc23)Nc2ccc(O)cc21 (stereo not given)	inactive
